# Target Under Test: HvPPA (Haloferax volcanii, UniProt D4GT97)
# Construct: thrombin-cleavage site (linker between His6 and HvPPA) (N); made in house; host or cells: Haloferax volcanii H26-pJAM2920
# Sequence (D4GT97 1-177): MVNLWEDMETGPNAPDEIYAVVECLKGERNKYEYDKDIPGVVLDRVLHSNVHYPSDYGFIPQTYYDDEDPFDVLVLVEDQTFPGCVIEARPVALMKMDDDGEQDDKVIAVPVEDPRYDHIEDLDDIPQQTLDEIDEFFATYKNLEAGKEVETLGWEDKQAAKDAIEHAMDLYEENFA
# Procedure Details: Sodium fluoride-based inhibition of HvPPA
# Format: biochemical
# Settings: Ki, pH 8.5
Value Type: Ki
Enter the number, and then the unit.

Look up and report measured Ki for this entry: F [NaF, sodium fluoride]
1800 µM

Every entry's value here was drawn from patent US11466260B2.
